Field: pKi. System: Orexin/Hypocretin receptor type 1 (Homo sapiens). Provenance: assorted publications.
Molecular target: Orexin/Hypocretin receptor type 1 (Homo sapiens)
Sequence (O43613 whole entry): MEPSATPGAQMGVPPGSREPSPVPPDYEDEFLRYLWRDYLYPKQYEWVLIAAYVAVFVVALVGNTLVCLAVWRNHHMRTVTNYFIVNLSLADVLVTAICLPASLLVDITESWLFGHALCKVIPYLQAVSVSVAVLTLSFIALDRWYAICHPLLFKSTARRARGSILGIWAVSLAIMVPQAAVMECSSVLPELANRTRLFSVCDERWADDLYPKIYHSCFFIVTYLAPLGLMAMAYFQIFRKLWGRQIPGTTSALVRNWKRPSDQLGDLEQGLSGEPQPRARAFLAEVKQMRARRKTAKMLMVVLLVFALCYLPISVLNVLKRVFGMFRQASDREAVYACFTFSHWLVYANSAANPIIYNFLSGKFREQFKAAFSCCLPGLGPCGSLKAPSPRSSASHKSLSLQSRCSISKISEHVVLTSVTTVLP
pKi: −log10 of the molar value.
Kindly return Yes if reported pKi is no lower than 7; return No if it is lower.

Take a look at these entries with their results.
| compound | group |
| --- | --- |
| Cc1ccc(-n2nccn2)c(C(=O)N2C[C@H]3CC[C@@H]2CN(c2ncc4ccc(F)cc4n2)C3)c1 (single isomer, unassigned) | Yes |
| Cc1ccc(-n2nccn2)c(C(=O)N2C[C@H](C#Cc3ccccn3)CC[C@H]2C)c1 | Yes |
| CCc1ccnc(O[C@@H]2CC[C@@H](C)N(C(=O)c3ccccc3-n3nccn3)C2)c1 | Yes |
| Cn1c(CCC(=O)N2CCC[C@H]2C(=O)Nc2ccccc2-c2ccccc2)nc2ccccc21 | Yes |
| C[C@@H]1CC[C@@H](Oc2cc(N(C)C)ccn2)CN1C(=O)c1ccccc1-n1nccn1 | No |

We next turn to a different compound, shown below.
Is reported pKi greater than or equal to 7 here: "COCc1nc(C)ncc1OC[C@@]1(c2ccccc2)C[C@H]1C(=O)Nc1ccc(F)cn1"
Yes

---

Several reports have described pKi for Orexin/Hypocretin receptor type 1 (Homo sapiens); a selection of those results is presented here.
Molecular target: Orexin/Hypocretin receptor type 1 (Homo sapiens)
Sequence (O43613 whole entry): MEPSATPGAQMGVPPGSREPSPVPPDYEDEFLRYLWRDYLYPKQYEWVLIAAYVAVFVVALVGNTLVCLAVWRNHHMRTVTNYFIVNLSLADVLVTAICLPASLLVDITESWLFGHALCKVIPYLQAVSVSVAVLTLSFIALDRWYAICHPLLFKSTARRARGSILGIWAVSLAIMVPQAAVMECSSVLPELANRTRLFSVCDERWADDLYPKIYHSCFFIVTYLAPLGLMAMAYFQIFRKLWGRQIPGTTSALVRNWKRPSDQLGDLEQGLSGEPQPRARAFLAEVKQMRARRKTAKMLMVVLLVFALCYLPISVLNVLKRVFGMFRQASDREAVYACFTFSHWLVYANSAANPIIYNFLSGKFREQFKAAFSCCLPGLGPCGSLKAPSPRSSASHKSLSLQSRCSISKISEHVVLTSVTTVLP
Interpret pKi as the negative base-10 log of the concentration measured in mol/L.

Given "O=C(Nc1ccccc1Oc1ccccc1)[C@@H]1CCCN1C(=O)CSc1nc2ccccc2[nH]1" , state its recorded pKi.
7.16

Reported pKi, molecule "Cc1cc(C)cc(-c2cnc(-c3cccnc3)c(C(=O)N(C)Cc3ccc4c(c3)OCO4)c2)c1" : ____
5.72

Entry "COc1cc(N2C(=O)N(Cc3c(F)cc(F)cc3F)c3ccccc3S2(=O)=O)cnc1OC" : reported pKi = ?
7.90

---

Collected set of pKi measured with Orexin/Hypocretin receptor type 1 (Homo sapiens) across studies.
Quick note: pKi means taking -log10 of the concentration in moles per liter.

# example entries with known answers
| compound | pKi |
| --- | --- |
| Cc1ccc2nc(SCC(=O)N3CCC[C@H]3C(=O)Nc3ccccc3-n3cccc3)[nH]c2c1 | 8.52 |
| Cc1ccc(-n2nccn2)c(C(=O)N2C[C@H](COc3ccc(F)cn3)CC[C@H]2C)c1 | 9.00 |

Give the reported pKi for Cc1ccc(-n2nccn2)c(C(=O)N2C[C@H](COc3ccc(F)c(C)c3)CC[C@H]2C)c1 (racemic) (system: Orexin/Hypocretin receptor type 1 (Homo sapiens)).
9.52

Look up pKi with Orexin/Hypocretin receptor type 1 (Homo sapiens) for this compound: "Cc1ccc(-c2ncccn2)c(C(=O)N2C[C@H](COc3ccc(F)cn3)CC[C@H]2C)c1"
8.66

Lab request: please report pKi under test system Orexin/Hypocretin receptor type 1 (Homo sapiens) for "COc1ccc(CNC(=O)c2cc(-c3cc(C)cc(C)c3)cnc2-c2cccnc2)cc1"
5.53

Entry "Cc1ccnc(O[C@@H]2CC[C@@H](C)N(C(=O)c3ccccc3-n3nccn3)C2)c1" , system Orexin/Hypocretin receptor type 1 (Homo sapiens): what pKi was measured?
6.78

Reported pKi for Orexin/Hypocretin receptor type 1 (Homo sapiens), given "Cc1ccc(-n2nccn2)c(C(=O)N2CC[C@@H]3CC[C@H]2CN3c2ncc3ccc(F)cc3n2)c1" ?
6.80

# query: pKi | item "CC1(C)OC[C@H](NC(=O)Nc2ccc(Cl)cc2Cl)[C@H](c2ccccc2)O1" | system: Orexin/Hypocretin receptor type 1 (Homo sapiens)
7.70

Provide the documented pKi with Orexin/Hypocretin receptor type 1 (Homo sapiens) as the system for "CC1(C)OC[C@H](NC(=O)Nc2ccccc2Cl)[C@H](c2ccccc2)O1"
7.10

Give Orexin/Hypocretin receptor type 1 (Homo sapiens) pKi for "COc1ccc(CNC(=O)c2cc(-c3cc(C)cc(F)c3)cnc2-c2cccnc2)cc1OC"
5.97

---

Literature roundup of Orexin/Hypocretin receptor type 1 (Homo sapiens, UniProt O43613) data, read-out Ki.
Target: Orexin/Hypocretin receptor type 1 (Homo sapiens, UniProt O43613)
Sequence (O43613 whole entry): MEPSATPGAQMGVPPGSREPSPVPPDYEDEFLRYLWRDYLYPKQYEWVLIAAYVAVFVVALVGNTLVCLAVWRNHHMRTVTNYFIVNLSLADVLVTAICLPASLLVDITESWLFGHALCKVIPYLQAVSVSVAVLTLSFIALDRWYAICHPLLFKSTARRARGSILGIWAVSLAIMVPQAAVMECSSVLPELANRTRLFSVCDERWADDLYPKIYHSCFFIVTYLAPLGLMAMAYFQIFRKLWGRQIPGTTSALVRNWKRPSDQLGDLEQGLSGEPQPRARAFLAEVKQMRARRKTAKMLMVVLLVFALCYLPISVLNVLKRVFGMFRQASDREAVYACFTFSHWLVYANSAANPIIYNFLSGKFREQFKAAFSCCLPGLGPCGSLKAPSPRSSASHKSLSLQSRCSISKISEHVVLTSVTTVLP

Example entries begin here.
| compound | Ki |
| --- | --- |
| COc1cc(N2C(=O)N(Cc3c(F)cc(F)cc3Cl)c3ccccc3S2(=O)=O)cnc1OC | 0.0398 µM |
| CC1(C)OC[C@H](NC(=O)Nc2c(Cl)cccc2Cl)[C@H](c2ccccc2)O1 | > 5.01 µM |
| Cc1ccc(-n2nccn2)c(C(=O)N2C3CCC2CN(c2ncc4ccc(F)cc4n2)CC3)c1 (single isomer, unassigned; 8a) | 0.0006 µM |
| CC1(C)OC[C@H](NC(=O)Nc2ccccc2I)[C@H](c2ccccc2)O1 | 0.0794 µM |
| COc1ccc(OC[C@@]2(c3ccccc3)C[C@H]2C(=O)Nc2ccncc2)cc1OC | 1.42 µM |

Query (compound): "O=C(Nc1cccc(-c2ccccc2)c1)[C@@H]1CCCN1C(=O)CSc1nc2ccccc2[nH]1" ; field requested: Ki
0.5 µM

Using the record for "Cc1ccc(-n2nccn2)c(CN2CCCN(c3ncc4ccccc4n3)CC2)c1" , report its Ki.
0.93 µM

Form field: reported Ki of "Cc1ccc(-n2nccn2)c(C(=O)N2C[C@H](C#Cc3cccnc3)CC[C@H]2C)c1"
0.107 µM

Any idea what Ki was measured for "CC1(C)OC[C@H](NC(=O)Nc2cc(Cl)ccc2Cl)[C@H](c2ccccc2)O1" ?
> 5.01 µM

Dear colleague, I am looking for the recorded Ki of the following compound: "COc1ccccc1NC(=O)N[C@H]1COC(C)(C)O[C@H]1c1ccccc1"
> 10 µM

Report Ki for "Cc1cc(C)cc(-c2cnc(-c3cccnc3)c(C(=O)NCc3ccc4c(c3)CCN4C)c2)c1" please.
0.273 µM

Please give the measured Ki for this compound: Cc1nc(C(=O)N2CCCCC2CCOc2ccc(F)cc2)c(-c2ccccc2)s1 (centres undefined)
0.008 µM

Please look up its Ki: "C#Cc1ccnc(O[C@@H]2CC[C@@H](C)N(C(=O)c3ccccc3-n3nccn3)C2)c1"
0.049 µM

Param item = "CC1(C)OC[C@H](NC(=O)Nc2ccccc2)[C@H](c2ccccc2)O1" ; retrieve measured Ki.
> 10 µM

---

Here's a roundup of pKi values tested on Orexin/Hypocretin receptor type 1 (Homo sapiens, UniProt O43613), taken from various published works.
Biological target: Orexin/Hypocretin receptor type 1 (Homo sapiens, UniProt O43613)
Sequence (O43613 whole entry): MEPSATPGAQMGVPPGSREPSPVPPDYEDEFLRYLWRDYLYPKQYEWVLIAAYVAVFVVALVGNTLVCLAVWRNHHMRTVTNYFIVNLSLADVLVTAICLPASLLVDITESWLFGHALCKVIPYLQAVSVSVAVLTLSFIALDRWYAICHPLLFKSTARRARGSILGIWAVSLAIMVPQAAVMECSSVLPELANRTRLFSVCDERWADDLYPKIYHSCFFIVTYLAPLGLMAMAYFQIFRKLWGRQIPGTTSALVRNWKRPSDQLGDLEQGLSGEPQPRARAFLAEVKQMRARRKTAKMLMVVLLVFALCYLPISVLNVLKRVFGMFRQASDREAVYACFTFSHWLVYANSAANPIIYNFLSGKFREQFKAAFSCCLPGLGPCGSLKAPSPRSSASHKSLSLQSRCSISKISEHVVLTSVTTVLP
pKi: −log10 of the molar value.
Outcome: Y for pKi of at least 7; N for anything lower.

| compound | group |
| --- | --- |
| CC(=O)Nc1ccc(-c2ccccc2)c(C(=O)N2C[C@H](Oc3nccc(C#N)c3C)CC[C@H]2C)n1 | Y |
| CS(=O)(=O)c1cncc(N2C(=O)N(Cc3c(F)cc(F)cc3F)c3ncccc3S2(=O)=O)c1 | Y |
| COc1cccc(OC[C@@]2(c3ccccc3)C[C@H]2C(=O)Nc2ccccn2)c1 | N |
| Cc1ccc(-n2nccn2)c(C(=O)N2CCCC(COc3ccc(F)c(C)c3)C2)c1 (configuration not stated) | Y |
| COc1cc(N2C(=O)N(Cc3c(F)cc(F)cc3F)c3ccccc3S2(=O)=O)cc(OC)n1 | Y |

Is pKi for "Cc1cc(Br)ccc1NC(=O)N[C@H]1COC(C)(C)O[C@H]1c1ccccc1" at or above 7?
N

Given "COCc1ccc(OC[C@@]2(c3ccccc3)C[C@H]2C(=O)Nc2ccccn2)cc1OC" , state whether its pKi is at least 7.
N

Has "C[C@@H]1CC[C@@H](Oc2cc(C#N)ccn2)CN1C(=O)c1ccc(C#N)cc1-n1nccn1" a recorded pKi greater than or equal to 7?
N

Form field: pKi at least 7? Entry: "Cc1ccc(-n2nccn2)c(C(=O)N2C[C@@H]3CC[C@H]2CCN3c2ncc3ccc(F)cc3n2)c1"
Y
